Experiment: Pharmacokinetics of six cocktail probe drugs in rat plasma (UPLC-MS/MS) after 7-day MGCD0103 or saline
Conditions: Control group: saline i.g. 7 days (no MGCD0103), then probe 10 mg/kg (tolbutamide 1 mg/kg) i.g.; rat plasma; mean ± SD, n = 10
assay metric: AUC(0–t)

INSERT INTO assay_data (compound, assay_metric, result) VALUES
  ('CC(NC(C)(C)C)C(=O)c1cccc(Cl)c1 (stereo not drawn)', 'AUC(0–t)', '144.8 ± 94.1 ng/mL∗h'),
  ('CCCCNC(=O)NS(=O)(=O)c1ccc(C)cc1 [Tolbutamide]', 'AUC(0–t)', '88701.2 ± 19274.8 ng/mL∗h'),
  ('CCOc1ccc(NC(C)=O)cc1', 'AUC(0–t)', '3831.2 ± 2840.9 ng/mL∗h'),
  ('COCCc1ccc(OCC(O)CNC(C)C)cc1 (stereo not drawn)', 'AUC(0–t)', '709.2 ± 255.8 ng/mL∗h'),
  ('C[C@]12CC[C@H]3[C@@H](CCC4=CC(=O)CC[C@@]43C)[C@@H]1CC[C@@H]2O', 'AUC(0–t)', '85.9 ± 40.6 ng/mL∗h'),
  ('COc1ccc2[nH]c([S+]([O-])Cc3ncc(C)c(OC)c3C)nc2c1 (stereo not drawn)', 'AUC(0–t)', '503.8 ± 199.4 ng/mL∗h');

* * *

Assay: Pharmacokinetics of six cocktail probe drugs in rat plasma (UPLC-MS/MS) after 7-day MGCD0103 or saline
Conditions: Sprague-Dawley, rat, in vivo, po, 10 mg/kg, C max, Low group: MGCD0103 20 mg/kg i.g. 7 days, then probe 10 mg/kg (tolbutamide 1 mg/kg) i.g.; rat plasma; mean ± SD, n = 10
assay metric: Cmax (ng/mL)

INSERT INTO results (molecule, assay_metric, result_number) VALUES
  ('C[C@]12CC[C@H]3[C@@H](CCC4=CC(=O)CC[C@@]43C)[C@@H]1CC[C@@H]2O', 'Cmax', 302);

* * *

Experiment: Pharmacokinetics of six cocktail probe drugs in rat plasma (UPLC-MS/MS) after 7-day MGCD0103 or saline
Conditions: Low group: MGCD0103 20 mg/kg i.g. 7 days, then probe 10 mg/kg (tolbutamide 1 mg/kg) i.g.; rat plasma; mean ± SD, n = 10
Let's look at some molecules and their measured AUC(0–t).
assay metric: AUC(0–t) (ng/mL∗h)

INSERT INTO measurements (molecule, uom, result_number) VALUES
  ('C[C@]12CC[C@H]3[C@@H](CCC4=CC(=O)CC[C@@]43C)[C@@H]1CC[C@@H]2O [Testosterone]', 'ng/mL∗h', 404.5),
  ('COc1ccc2[nH]c([S+]([O-])Cc3ncc(C)c(OC)c3C)nc2c1 (stereo not drawn) [Omeprazole]', 'ng/mL∗h', 700.1),
  ('CC(NC(C)(C)C)C(=O)c1cccc(Cl)c1 (stereo not drawn) [Bupropion]', 'ng/mL∗h', 282.5),
  ('COCCc1ccc(OCC(O)CNC(C)C)cc1 (stereo not drawn) [Metoprolol]', 'ng/mL∗h', 698.1),
  ('CCOc1ccc(NC(C)=O)cc1 [Phenacetin]', 'ng/mL∗h', 2973.6),
  ('CCCCNC(=O)NS(=O)(=O)c1ccc(C)cc1 [Tolbutamide]', 'ng/mL∗h', 82724.8);

* * *

Test: Pharmacokinetics of six cocktail probe drugs in rat plasma (UPLC-MS/MS) after 7-day MGCD0103 or saline
Details: Sprague-Dawley, rat, in vivo, po, 10 mg/kg, t 1/2, Medium group: MGCD0103 40 mg/kg i.g. 7 days, then probe 10 mg/kg (tolbutamide 1 mg/kg) i.g.; rat plasma; mean ± SD, n = 10
assay metric: half-life (h)

INSERT INTO results (molecule, result_number) VALUES
  ('C[C@]12CC[C@H]3[C@@H](CCC4=CC(=O)CC[C@@]43C)[C@@H]1CC[C@@H]2O', 2.2);

* * *

Let's look at some compounds and their measured AUC(0–∞).
Assay: Pharmacokinetics of six cocktail probe drugs in rat plasma (UPLC-MS/MS) after 7-day MGCD0103 or saline
Details: Medium group: MGCD0103 40 mg/kg i.g. 7 days, then probe 10 mg/kg (tolbutamide 1 mg/kg) i.g.; rat plasma; mean ± SD, n = 10
assay metric: AUC(0–∞) (ng/mL∗h)

INSERT INTO assay_data (compound, result_number) VALUES
  ('COCCc1ccc(OCC(O)CNC(C)C)cc1 (stereo not drawn) [Metoprolol]', 843.7),
  ('COc1ccc2[nH]c([S+]([O-])Cc3ncc(C)c(OC)c3C)nc2c1 (stereo not drawn) [Omeprazole]', 539.1),
  ('CC(NC(C)(C)C)C(=O)c1cccc(Cl)c1 (stereo not drawn) [Bupropion]', 122.3),
  ('CCOc1ccc(NC(C)=O)cc1 [Phenacetin]', 2918.2),
  ('CCCCNC(=O)NS(=O)(=O)c1ccc(C)cc1 [Tolbutamide]', 72761.4),
  ('C[C@]12CC[C@H]3[C@@H](CCC4=CC(=O)CC[C@@]43C)[C@@H]1CC[C@@H]2O [Testosterone]', 106.5);

* * *

Experiment: Pharmacokinetics of six cocktail probe drugs in rat plasma (UPLC-MS/MS) after 7-day MGCD0103 or saline
Details: Sprague-Dawley, rat, in vivo, po, 10 mg/kg, C max, High group: MGCD0103 80 mg/kg i.g. 7 days, then probe 10 mg/kg (tolbutamide 1 mg/kg) i.g.; rat plasma; mean ± SD, n = 10
assay metric: Cmax (ng/mL)

INSERT INTO assay_data (molecule, result_number) VALUES
  ('C[C@]12CC[C@H]3[C@@H](CCC4=CC(=O)CC[C@@]43C)[C@@H]1CC[C@@H]2O', 462);

* * *

Let's look at some compounds and their measured AUC(0–∞).
Assay: Pharmacokinetics of six cocktail probe drugs in rat plasma (UPLC-MS/MS) after 7-day MGCD0103 or saline
Details: Control group: saline i.g. 7 days (no MGCD0103), then probe 10 mg/kg (tolbutamide 1 mg/kg) i.g.; rat plasma; mean ± SD, n = 10
assay metric: AUC(0–∞) (ng/mL∗h)

INSERT INTO measurements (compound, uom, result_number) VALUES
  ('CCOc1ccc(NC(C)=O)cc1', 'ng/mL∗h', 3833.6),
  ('COCCc1ccc(OCC(O)CNC(C)C)cc1 (stereo not drawn)', 'ng/mL∗h', 724.2),
  ('COc1ccc2[nH]c([S+]([O-])Cc3ncc(C)c(OC)c3C)nc2c1 (stereo not drawn)', 'ng/mL∗h', 528.0),
  ('CCCCNC(=O)NS(=O)(=O)c1ccc(C)cc1 [Tolbutamide]', 'ng/mL∗h', 89852.0),
  ('CC(NC(C)(C)C)C(=O)c1cccc(Cl)c1 (stereo not drawn)', 'ng/mL∗h', 146.7),
  ('C[C@]12CC[C@H]3[C@@H](CCC4=CC(=O)CC[C@@]43C)[C@@H]1CC[C@@H]2O', 'ng/mL∗h', 89.9);

* * *

Test: Pharmacokinetics of six cocktail probe drugs in rat plasma (UPLC-MS/MS) after 7-day MGCD0103 or saline
Conditions: Sprague-Dawley, rat, in vivo, po, 10 mg/kg, t 1/2, High group: MGCD0103 80 mg/kg i.g. 7 days, then probe 10 mg/kg (tolbutamide 1 mg/kg) i.g.; rat plasma; mean ± SD, n = 10
assay metric: half-life (h)

INSERT INTO assay_data (molecule, result_number) VALUES
  ('C[C@]12CC[C@H]3[C@@H](CCC4=CC(=O)CC[C@@]43C)[C@@H]1CC[C@@H]2O', 4);

* * *

Let's look at some compounds and their measured half-life.
Assay: in vivo
Settings: Sprague-Dawley, rat, in vivo, po, t 1/2
assay metric: half-life (h)

INSERT INTO results (compound, assay_metric, result_number) VALUES
  ('COCCc1ccc(OCC(O)CNC(C)C)cc1 (centres unmarked) [Metoprolol]', 'half-life', 0.8),
  ('CCCCNC(=O)NS(=O)(=O)c1ccc(C)cc1 [Tolbutamide]', 'half-life', 5.2);

* * *

Experiment: in vivo
Conditions: Sprague-Dawley, rat, in vivo, po, 10 mg/kg, C max
Let's look at some compounds and their measured Cmax.
assay metric: Cmax (ng/mL)

INSERT INTO results (compound, result_number) VALUES
  ('COc1ccc2[nH]c([S+]([O-])Cc3ncc(C)c(OC)c3C)nc2c1 (stereo not drawn)', 556),
  ('CCOc1ccc(NC(C)=O)cc1', 2880),
  ('CC(NC(C)(C)C)C(=O)c1cccc(Cl)c1 (stereo not drawn)', 157);

* * *

Experiment: Pharmacokinetics of six cocktail probe drugs in rat plasma (UPLC-MS/MS) after 7-day MGCD0103 or saline
Details: Sprague-Dawley, rat, in vivo, po, 10 mg/kg, C max, Medium group: MGCD0103 40 mg/kg i.g. 7 days, then probe 10 mg/kg (tolbutamide 1 mg/kg) i.g.; rat plasma; mean ± SD, n = 10
assay metric: Cmax (ng/mL)

INSERT INTO results (molecule, result_number) VALUES
  ('C[C@]12CC[C@H]3[C@@H](CCC4=CC(=O)CC[C@@]43C)[C@@H]1CC[C@@H]2O', 93.2);
